Source: ChEMBL document CHEMBL1130070

# assayed-system: Human immunodeficiency virus type 1 reverse transcriptase (Human immunodeficiency virus 1, UniProt Q72547)
# method-notes: Compound was tested for the effect on HIV-1 Reverse Transcriptase; NI = No inhibition
test-readout: I50

Below, each entry is followed by its recorded I50 result.
C/C(=C(\CCO)SS/C(CCO)=C(/C)N(C=O)Cc1cnc(C)nc1N)N(C=O)Cc1cnc(C)nc1N : Not Active
CCN(CC)C(=S)S : Not Active
NCCSSCCN : Not Active
CCN(CC)C(=S)SSC(=S)N(CC)CC : Not Active

Give the reported I50 for this compound. NCCS
Not Active

* * *

# assayed-system: Human immunodeficiency virus type 1 protease (Human immunodeficiency virus 1, UniProt Q72874)
# method-notes: Compound was tested for effects on HIV-1 protease; NI = No inhibition
test-readout: I50

NCCS : Not Active
NCCSSCCN : Not Active
CCN(CC)C(=S)S : Not Active
CCN(CC)C(=S)SSC(=S)N(CC)CC : Not Active

Give the reported I50 for this compound. C/C(=C(\CCO)SS/C(CCO)=C(/C)N(C=O)Cc1cnc(C)nc1N)N(C=O)Cc1cnc(C)nc1N
Not Active
